Biological target: Taq pol D578S-R728Q-M747V D578S;R728Q;M747V (UniProt P19821)
Assay: stopped-flow fluorescence anisotropy
Settings: T17 carries SIMA; Kd: 5 mM Tricine-KOH pH 8.0, 100 mM KCl, 3.4 mM MgCl2, 0.1 mM each dNTP, 0.01% Tween 20, 20 nM hairpin, 55 C (SYTO 13 1/5000 listed in the shared buffer)
pKd: −log10 of the molar value.

CHAIN_SEQUENCE	pKd
GCTATGCGTGAGCGCTTTTGCGCTCACGCATAGC [H-Kd hairpin]	7.86

---

Target: Taq pol R660S R660S (UniProt P19821)
Test: stopped-flow fluorescence anisotropy
Conditions: T17 carries SIMA; Kd: 5 mM Tricine-KOH pH 8.0, 100 mM KCl, 3.4 mM MgCl2, 0.1 mM each dNTP, 0.01% Tween 20, 20 nM hairpin, 55 C (SYTO 13 1/5000 listed in the shared buffer)
pKd: −log10 of the molar value.

CHAIN_SEQUENCE	pKd
GCTATGCGTGAGCGCTTTTGCGCTCACGCATAGC [H-Kd hairpin]	7.97

---

Target: Taq pol R573K-D578N R573K;D578N (UniProt P19821)
Experiment: stopped-flow fluorescence anisotropy
Settings: T17 carries SIMA; Kd: 5 mM Tricine-KOH pH 8.0, 100 mM KCl, 3.4 mM MgCl2, 0.1 mM each dNTP, 0.01% Tween 20, 20 nM hairpin, 55 C (SYTO 13 1/5000 listed in the shared buffer)

CHAIN_SEQUENCE	SYSTEM_UNDER_TEST	MEASUREMENT_UNIT	Kd
GCTATGCGTGAGCGCTTTTGCGCTCACGCATAGC [H-Kd hairpin]	Taq pol R573K-D578N R573K;D578N (UniProt P19821)	nM	4.33

---

Target: Taq pol E507Q E507Q (UniProt P19821)
Experiment: stopped-flow fluorescence anisotropy
Settings: T17 carries SIMA; Kd: 5 mM Tricine-KOH pH 8.0, 100 mM KCl, 3.4 mM MgCl2, 0.1 mM each dNTP, 0.01% Tween 20, 20 nM hairpin, 55 C (SYTO 13 1/5000 listed in the shared buffer)
MEASUREMENT_KIND: Kd (nM)

CHAIN_SEQUENCE	ENDPOINT_RESULT
GCTATGCGTGAGCGCTTTTGCGCTCACGCATAGC [H-Kd hairpin]	4.78

---

Molecular target: Taq pol E507Q-D578S-I614M E507Q;D578S;I614M (UniProt P19821)
Test: stopped-flow fluorescence anisotropy
Settings: T17 carries SIMA; Kd: 5 mM Tricine-KOH pH 8.0, 100 mM KCl, 3.4 mM MgCl2, 0.1 mM each dNTP, 0.01% Tween 20, 20 nM hairpin, 55 C (SYTO 13 1/5000 listed in the shared buffer)

CHAIN_SEQUENCE	Kd, nM
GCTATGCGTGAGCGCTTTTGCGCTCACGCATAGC [H-Kd hairpin]	1.17

---

Biological target: Taq pol H639F H639F (UniProt P19821)
Test: stopped-flow fluorescence anisotropy
Conditions: T17 carries SIMA; Kd: 5 mM Tricine-KOH pH 8.0, 100 mM KCl, 3.4 mM MgCl2, 0.1 mM each dNTP, 0.01% Tween 20, 20 nM hairpin, 55 C (SYTO 13 1/5000 listed in the shared buffer)

CHAIN_SEQUENCE	MEASUREMENT_UNIT	Kd
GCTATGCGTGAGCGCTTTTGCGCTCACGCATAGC [H-Kd hairpin]	nM	6.55
